- Tested on: MOLT-4
- Experiment Description: NCI tumour cell line growth inhibition, 48 h
Activity calls are given as the source filed them. Rule as the data show it: active = GI50 up to about 1.1 µM and inactive = higher.
Use one of these outcomes when replying: True (active), False (inactive)

Some solved entries appear below for comparison.
Cc1cccc(-c2nnc3s/c(=C\c4ccc(N(C)C)cc4)c(=O)n23)c1
False
CC(=O)NC(=O)/N=C1\NCCC(=O)N1CCc1c[nH]c2ccccc12
False
CC(C)c1ccccc1SC1CC(=O)CC(Sc2ccccc2C(C)C)C12O[C@H](c1ccccc1)[C@@H](c1ccccc1)O2 (stereo not given in full)
False
C=C1C(=O)O[C@H]2C(=O)[C@H](C)CCC/C(C)=C/CC[C@@]3(C)O[C@@H]3C[C@@H]12
False
CCC(=O)N(O)C(C)(C)C
False
CC(C)(C)OC(=O)N1C(c2cccnc2)=CC[C@H]2C3CC=C(c4cccnc4)[C@@]3(C)CC[C@@H]21 (stereo not given in full)
False

Ask: Tell me the assay call for `COC(=O)/C=C(/OC)[C@H](C)[C@H](/C=C/c1csc(-c2csc(C(C)C)n2)n1)OC` please.
Result: True

Ask: Same thing, different compound: `Cc1ccc(S(=O)(=O)NC(=O)Nc2c(S(N)(=O)=O)cc(S(N)(=O)=O)c(Cl)c2Cl)cc1`
Result: False

Ask: Same thing, different compound: `NCCCCCS(=O)(=O)O`
Result: False

Ask: Same thing, different compound: C=C(Cl)C(C)(Cl)CCC(Cl)C(C)(C)Cl (stereo not given)
Result: False

----------
Attribute: GI50
- System: M19-MEL
- Experiment Description: NCI tumour cell line growth inhibition, 48 h
Calls of active or inactive are those of the source. Cut-off read from the data, not from the text of the source: active = GI50 up to about 1.1 µM and inactive = higher.

Worked examples, 4 molecules total:
CCN(CC)CCCOC(=O)/C=C/c1c(C)[nH]c(=O)[nH]c1=O
> 625 µM (inactive)
C(=C1/CCCCC([n+]2ccccc2)=N1)/c1ccccc1
> 100 µM (inactive)
Cc1cc(C)nc(NS(=O)(=O)c2ccc(Nc3c4ccc(Cl)cc4nc4c(C(=O)NCCN(C)C)cccc34)cc2)n1
> 100 µM (inactive)
C=CC[C@H](C[C@H](C[C@H](C[C@H](C[C@H](C[C@H](C[C@H](C[C@H](C[C@H](C[C@H](CCCCC)OC)OC)OC)OC)OC)OC)OC)OC)OC)OC
> 100 µM (inactive)

Consider the record given below.
Ask: Look up GI50: `COc1ccc2[nH]c3c(c2c1)CCN(C)CC3`
Result: 57.4 µM (inactive)

----------
- System: UO-31
- Experiment Description: NCI tumour cell line growth inhibition, 48 h
The source made the active and inactive calls. Rule as the data show it: active = GI50 up to about 1.1 µM and inactive = higher.
Attribute: GI50

COc1cc(Cl)cc(O)c(=O)c1OC
42.4 µM (inactive)
COC(=O)C(=O)C(C(=O)C(=O)Nc1ccccc1C(N)=O)c1nc2ccc(Cl)cc2nc1O (stereo unspecified)
> 100 µM (inactive)
C1=CC=C2NCCCCCCC/N=C3/C=CC=CC=C3NCCCCCCC/N=C\2C=C1
> 100 µM (inactive)
Cc1ccc(NCC(=O)N2CC(=O)Nc3ccccc32)cc1
> 100 µM (inactive)
Cc1nn(-c2ccccc2)c2c1C(c1ccc(Cl)cc1)NC(=S)N2 (stereo unspecified)
15 µM (inactive)
CCOC(=O)C(CC/C=C\c1ccccc1)N1CCC[C@H]1C(=O)OC (stereo partly specified)
> 100 µM (inactive)

Consider the record given below.
Ask: Look up GI50: `Cc1nc2c(nc1C)C(=O)c1cc(O)ccc1C2=O`
Result: > 100 µM (inactive)
